# ASSAY TEXT: Cytotoxicity against dog MDCK cells assessed as cell morphology alterations
# Assay type: cell-based, Canis lupus familiaris
Consider the following molecules; for each one, report its MCC.
Answers are plain numbers, in µM.

>>> df
                 structure_smiles_string  number
0     CC1(C)C2CC3CC(C2)CC1(NCc1ccccc1)C3       4
1  CN(Cc1ccccc1)C12CC3CC(CC(C3)C1(C)C)C2       4
2            CCNC12CC3CC(CC(C3)C1(C)C)C2     200
3          CCCC1(CCC)C2CC3CC(C2)CC1(N)C3       6

Lab note: each molecule below needs its MCC filled in.
1. CC1(C)C2CC3CC(C2)CC1(N)C3
2. CNC12CC3CC(CC(C3)C1(C)C)C2

Solution:
[167, 110]

Exercise: Report measured MCC; entry is NC12CC3CC(CC(C3)C13CCCCC3)C2
Solution: 6
